abundance fitness reference
B1: Neutrophil cytosol factor 2, residues 456 to 514; numbered along this chain, P19878 (parent)
chain: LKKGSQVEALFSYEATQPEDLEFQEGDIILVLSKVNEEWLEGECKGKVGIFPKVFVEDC

Variants of: B1
Run Description: abundance fitness (aPCA) (normalised: wild type 0, dead -1); higher = more abundant; growth selection in yeast, the domain comes from the species named
Condition Details: Homo sapiens
Quantity Measured: abundance fitness

{"Primary Sequence": "LKKGSQVEALFSYEATQPEDLEFQEGDIILVLSKVNEEWLEGECKGKSGIFPKVFVEDC [V48S]", "Measurement": -0.355}
{"Primary Sequence": "LKKGSQVEALFSYEATQPEDLEFQEGDIILVLSKVNEEWLEGECKGKVGIWPKVFVEDC [F51W]", "Measurement": -0.739}
{"Primary Sequence": "LKKGSQVEALFSYEATQPEDLEFQEGDIILVLSKVNEEWLEGECKGKVGIFPDVFVEDC [K53D]", "Measurement": -0.61}
{"Primary Sequence": "LKKGSQVEALFSYEATQPEDLEFQEGDIILVLSKVNERWLEGECKGKVGIFPKVFVEDC [E38R]", "Measurement": -0.941}
{"Primary Sequence": "LKKGSQVEALFSYEATQPEDLEFQEGDIILVLSKVNEEWLEGECKGKVGIFPKVFYEDC [V56Y]", "Measurement": -0.574}
{"Primary Sequence": "LKKGSQVEALFSYEATQPHDLEFQEGDIILVLSKVNEEWLEGECKGKVGIFPKVFVEDC [E19H]", "Measurement": -0.096}
{"Primary Sequence": "LKKGSQVEALFSYEATQPEDLEFQEGDIILVLSKVNEELLEGECKGKVGIFPKVFVEDC [W39L]", "Measurement": -0.8}
{"Primary Sequence": "LKKGSQVEALFSYEATQPEDLEFQEGDIILVLSKVNEEWLEGECKGKVGIFPKVCVEDC [F55C]", "Measurement": 0.597}
{"Primary Sequence": "LKKGSQVEALFSYEATQPEDLEFQEGDIILVLSKVNEEWLEYECKGKVGIFPKVFVEDC [G42Y]", "Measurement": -0.466}
{"Primary Sequence": "LKKGSQVEALFSYEATQPEDLEFQEGDIILVLSKVNEEWLEGECKGKVMIFPKVFVEDC [G49M]", "Measurement": -0.075}
{"Primary Sequence": "LKKGSQVEALFSYEATQAEDLEFQEGDIILVLSKVNEEWLEGECKGKVGIFPKVFVEDC [P18A]", "Measurement": -0.284}
{"Primary Sequence": "LKKGSQVEALFSYEATQPEDLEFQENDIILVLSKVNEEWLEGECKGKVGIFPKVFVEDC [G26N]", "Measurement": -0.517}
{"Primary Sequence": "LKKGSQVEALFSYEATQPEDLEFQEGSIILVLSKVNEEWLEGECKGKVGIFPKVFVEDC [D27S]", "Measurement": -0.666}
{"Primary Sequence": "LKKGSQVEALFSYEATQPEDLEFQEGDIILVVSKVNEEWLEGECKGKVGIFPKVFVEDC [L32V]", "Measurement": -0.297}
{"Primary Sequence": "LKKGSQVEALFSYEATQPEDLEFQEGDIILVLSKVNEEWLEGECKGYVGIFPKVFVEDC [K47Y]", "Measurement": -0.742}
{"Primary Sequence": "LKKGSQVEALFSYEATQPEDLEFQEKDIILVLSKVNEEWLEGECKGKVGIFPKVFVEDC [G26K]", "Measurement": 0.016}
{"Primary Sequence": "LKKGSQVEALFSYEATQPEDLEFQEGDMILVLSKVNEEWLEGECKGKVGIFPKVFVEDC [I28M]", "Measurement": -0.065}
{"Primary Sequence": "LKKGSQVEALFSYEATQPEDLEFQEGDIILVLSKVNEEWNEGECKGKVGIFPKVFVEDC [L40N]", "Measurement": -0.945}
{"Primary Sequence": "LKKGSQVEALFSYEATQPEDLEFQEGDIILVCSKVNEEWLEGECKGKVGIFPKVFVEDC [L32C]", "Measurement": -0.428}
{"Primary Sequence": "LKKGSQVEALFSYEAAQPEDLEFQEGDIILVLSKVNEEWLEGECKGKVGIFPKVFVEDC [T16A]", "Measurement": -0.475}
{"Primary Sequence": "LKKGSQVEALFSYEATQPEDLESQEGDIILVLSKVNEEWLEGECKGKVGIFPKVFVEDC [F23S]", "Measurement": -0.655}
{"Primary Sequence": "LKKGSQVEELFSYEATQPEDLEFQEGDIILVLSKVNEEWLEGECKGKVGIFPKVFVEDC [A9E]", "Measurement": -0.361}
{"Primary Sequence": "LKKGSQVEALFSYEATQPEDLEFQEGDIILVLSKVNEEWLEGECKGKVGIFYKVFVEDC [P52Y]", "Measurement": -0.738}
{"Primary Sequence": "LKKGSQVEALFSYEATQPEDLEGQEGDIILVLSKVNEEWLEGECKGKVGIFPKVFVEDC [F23G]", "Measurement": -0.198}
{"Primary Sequence": "LKKGSQVEALFSYEATQPEDLEFQEGDIILVQSKVNEEWLEGECKGKVGIFPKVFVEDC [L32Q]", "Measurement": -0.143}
{"Primary Sequence": "LKKGSQVEALFSYLATQPEDLEFQEGDIILVLSKVNEEWLEGECKGKVGIFPKVFVEDC [E14L]", "Measurement": -0.231}
{"Primary Sequence": "LKKGSQVEALFSYEATQPEDLEFQEGDIILVLSKVNEEWLENECKGKVGIFPKVFVEDC [G42N]", "Measurement": -0.484}
{"Primary Sequence": "LKKGLQVEALFSYEATQPEDLEFQEGDIILVLSKVNEEWLEGECKGKVGIFPKVFVEDC [S5L]", "Measurement": -0.289}
{"Primary Sequence": "LKKGSQVEALFSYEATQPEDLEFQEGDIILVFSKVNEEWLEGECKGKVGIFPKVFVEDC [L32F]", "Measurement": -0.118}
{"Primary Sequence": "LKKGSQVEALFSYEATQPEDLEFQEGDIILVLSKVNEEWLYGECKGKVGIFPKVFVEDC [E41Y]", "Measurement": 0.47}
{"Primary Sequence": "LPKGSQVEALFSYEATQPEDLEFQEGDIILVLSKVNEEWLEGECKGKVGIFPKVFVEDC [K2P]", "Measurement": 0.067}
{"Primary Sequence": "LKKGSQVEALFSYEATQPEDLEFQEGDIILVLSKVNEEWCEGECKGKVGIFPKVFVEDC [L40C]", "Measurement": -0.614}
{"Primary Sequence": "LKKGSQVEALFSYEATQPEDLEFQEGDIILVLSKVNEEWLEEECKGKVGIFPKVFVEDC [G42E]", "Measurement": -0.237}
{"Primary Sequence": "LKKGSQVEALFSYEATQPEDLEYQEGDIILVLSKVNEEWLEGECKGKVGIFPKVFVEDC [F23Y]", "Measurement": -0.517}
{"Primary Sequence": "LKKGSQVEALFSYEATFPEDLEFQEGDIILVLSKVNEEWLEGECKGKVGIFPKVFVEDC [Q17F]", "Measurement": -0.793}
{"Primary Sequence": "LKKGSQVEALFSYEATQPEDLEFQEGDIILVLSKVNEEWLEGECKGKVGIFRKVFVEDC [P52R]", "Measurement": -0.918}
{"Primary Sequence": "LKKGSQVEALFSYEATQPEDLEFQEGDIILVLNKVNEEWLEGECKGKVGIFPKVFVEDC [S33N]", "Measurement": 0.147}
{"Primary Sequence": "LKKGSQVEALFSYEATQPEDLEFQEGDIILVLSKVNEWWLEGECKGKVGIFPKVFVEDC [E38W]", "Measurement": -0.396}
{"Primary Sequence": "LKKGSQVEALFSYEATQPEDLEFQEGCIILVLSKVNEEWLEGECKGKVGIFPKVFVEDC [D27C]", "Measurement": -0.301}
{"Primary Sequence": "LKKGSQVEALFSYEATQPEDLEFQEGDIILVLSKVNEEWLEGNCKGKVGIFPKVFVEDC [E43N]", "Measurement": -0.758}
{"Primary Sequence": "LKKGSQVEALFSYEATQPEDLEQQEGDIILVLSKVNEEWLEGECKGKVGIFPKVFVEDC [F23Q]", "Measurement": 0.047}
{"Primary Sequence": "LKKGSQVEALFSYEATQPEDLEFQEGDIILVLSKVNEEWKEGECKGKVGIFPKVFVEDC [L40K]", "Measurement": -0.918}
{"Primary Sequence": "LKKGSQVEALFSYEATQPEDLEFQEGDIILVLSKVNEEWLEGECKGKVGIFPKVFVEDN [C59N]", "Measurement": -0.242}
{"Primary Sequence": "LKKGSQVEALFSYEATQPEDLEKQEGDIILVLSKVNEEWLEGECKGKVGIFPKVFVEDC [F23K]", "Measurement": -0.048}
{"Primary Sequence": "LKKGSQVEALFSYEATQPEDLEFQEGDIILVLSKVNEEWLEGECKGKVGIFPKVFVEDA [C59A]", "Measurement": 0.057}
{"Primary Sequence": "LKKGSQVEALFSYEATQPEDLEFQEGDIILVLSKVNEEWLEGECKGKDGIFPKVFVEDC [V48D]", "Measurement": -0.443}

# credit: the Human Domainome abundance scans (Beltran et al. 2025)
